tested on: EKVX; assay: NCI-60 drug screen (SRB), NSCLC line EKVX; assay type: cell-based, human; settings: Homo sapiens, 48 hours drug exposure, SRB
Parameter: LC50

- O=C(CCN1CCCC1)Nc1ccc2c(c1)C(=O)c1cc(NC(=O)CCN3CCCC3)ccc1C2=O: > 100 µM
- CN1CCN(Cc2nc3ccc4c(c3[nH]2)C(=O)c2ccccc2C4=O)CC1: > 100 µM
- Cc1ccc(C(=O)Nc2c(NC(=O)CCl)ccc3c2C(=O)c2ccccc2C3=O)cc1: > 100 µM
